# Target: r(G4C2)8
# Test Protocol: Affinity by microscale thermophoresis (MST), r(G4C2)8
Experimental Endpoint: Kd (µM)

- Smiles Record: "CCOC(=O)C1=C(Nc2ccccc2)S/C(=C\\c2ccc(OCCOCCOCCOCCNC(=O)CCCOc3ccc4c(c3)c3cc5c(C(=O)N[C@H](C)CN(C)C)nccc5c(C)c3n4C)c(O)c2)C1=O"
  Units Of Measure: "µM"
  Endpoint Result: 3.3
